These entries and their values trace back to ChEMBL document CHEMBL1124966.

Data export: pIC50 values recorded with Cholecystokinin receptor type A (Rattus norvegicus, UniProt P30551).
Sequence (P30551 whole entry): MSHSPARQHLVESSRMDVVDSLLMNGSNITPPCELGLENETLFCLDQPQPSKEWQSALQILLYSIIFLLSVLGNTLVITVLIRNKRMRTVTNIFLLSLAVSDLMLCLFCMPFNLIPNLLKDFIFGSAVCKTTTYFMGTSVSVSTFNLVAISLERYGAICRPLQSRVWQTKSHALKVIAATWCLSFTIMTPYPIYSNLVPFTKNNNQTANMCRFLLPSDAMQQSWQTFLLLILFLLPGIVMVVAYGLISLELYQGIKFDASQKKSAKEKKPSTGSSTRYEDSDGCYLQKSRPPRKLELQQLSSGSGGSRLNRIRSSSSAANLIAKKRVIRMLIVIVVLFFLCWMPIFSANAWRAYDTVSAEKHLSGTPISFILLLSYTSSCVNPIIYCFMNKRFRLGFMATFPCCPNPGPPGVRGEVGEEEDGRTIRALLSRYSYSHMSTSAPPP
pIC50: −log10 of the molar value.

# compound, assayTarget, valueModifier, pIC50
measured = [
    ("CN1c2ccccc2C(c2ccccc2F)=NCC1CNC(=O)c1ccsc1 (racemic) [TIFLUADOM]", "Cholecystokinin receptor type A (Rattus norvegicus, UniProt P30551)", "=", 7.33),
    ("COC(=O)CC(NCC1CN=C(c2ccccc2F)c2ccccc2N1C)c1ccccc1 (centres undefined)", "Cholecystokinin receptor type A (Rattus norvegicus, UniProt P30551)", "=", 7.74),
    ("O=C(NCC1CNc2ccccc2C(c2ccccc2F)=N1)c1cc2ccccc2[nH]1 (centres undefined)", "Cholecystokinin receptor type A (Rattus norvegicus, UniProt P30551)", "=", 5.40),
    ("Cc1ccc(C(=O)NC[C@H]2CN=C(c3ccc(F)cc3)c3ccc(C)cc3N2C)cc1", "Cholecystokinin receptor type A (Rattus norvegicus, UniProt P30551)", "=", 6.59),
    ("CCN(CC)c1ccc(NCC2CN=C(c3ccccc3F)c3ccccc3N2C)cc1C(F)(F)F (centres undefined)", "Cholecystokinin receptor type A (Rattus norvegicus, UniProt P30551)", "=", 4.00),
    ("O=C(NCC1CNc2ccccc2C(c2ccccc2F)=N1)C(O)c1ccccc1 (single isomer, unassigned; form 2)", "Cholecystokinin receptor type A (Rattus norvegicus, UniProt P30551)", "<", 4.00),
    ("O=C1Nc2ccccc2C(c2ccccc2F)=NC1CNCC1N=C(c2ccccc2F)c2ccccc2NC1=O (centres undefined)", "Cholecystokinin receptor type A (Rattus norvegicus, UniProt P30551)", "=", 4.85),
    ("O=C(NCC1N=C(c2ccccc2F)c2ccccc2NC1=O)c1cc2ccccc2[nH]1 (centres undefined)", "Cholecystokinin receptor type A (Rattus norvegicus, UniProt P30551)", "=", 5.15),
    ("O=C(NCC1N=C(c2ccccc2F)c2ccccc2NC1=O)OCc1ccccc1 (centres undefined)", "Cholecystokinin receptor type A (Rattus norvegicus, UniProt P30551)", "=", 4.66),
]

----------
For reference, pIC50 measured on Cholecystokinin receptor type A (Rattus norvegicus):
pIC50: −log10 of the molar value.

# compound, valueModifier, pIC50
records = [
    ("O=C1Nc2ccccc2C(c2ccccc2F)=NC1CNc1cnc(Cl)cn1 (centres undefined)", "=", 4.82),
    ("CCN(CC)CNCC1CN=C(c2ccccc2F)c2ccccc2N1C (centres undefined)", "<", 4.00),
    ("CN1c2ccccc2C(c2ccccc2F)=NCC1CNC(=O)C(O)c1ccccc1 (centres undefined)", "=", 6.22),
    ("O=C(NCC1N=C(c2ccccc2F)c2ccccc2NC1=O)c1ccsc1 (centres undefined)", "=", 4.66),
    ("O=C(NCC1CNc2ccccc2C(c2ccccc2F)=N1)c1ccsc1 (centres undefined)", "=", 5.00),
    ("O=C(NCC1CNc2ccccc2C(c2ccccc2F)=N1)OCc1ccccc1 (centres undefined)", "=", 4.55),
    ("Cc1ccc(C(=O)NC[C@@H]2CN=C(c3ccc(F)cc3)c3ccc(C)cc3N2C)cc1", "=", 7.54),
    ("O=C(NCC1CNc2ccccc2C(c2ccccc2F)=N1)C(O)c1ccccc1 (single isomer, unassigned; form 1)", "=", 5.10),
    ("NCC1N=C(c2ccccc2F)c2ccccc2NC1=O (centres undefined)", "<", 4.00),
]
